Reference source for all entries: ChEMBL document CHEMBL5150068

Protocol Text: in vitro
Run Parameters: human, PM1 cells
Description: Therapeutic index, ratio of CC50 for human PM1 cells to EC50 for antiviral activity against HIV-1 SF162
Let's look at some compounds and their measured selectivity ratio.

{"Structure Notation": "CC(=O)N1CCc2c(nc(C)n2[C@@H]2C[C@H]3CC[C@@H](C2)N3CC[C@H](NC(=O)C2CCC(F)(F)CC2)c2ccsc2)C1", "Readout Value": "> 26200"}

Now examine the next entry.
Inquiry: Any idea what selectivity ratio was measured for "Cc1nc2c(n1[C@@H]1C[C@H]3CC[C@@H](C1)N3CC[C@H](NC(=O)C1CCC(F)(F)CC1)c1ccsc1)CCN(C(=O)C(C)C)C2" ?
Reply text: > 12500

###

Let's look at some molecules and their measured IC50.
Target: Cytochrome P450 1A2 (Homo sapiens)
Sequence (P05177 whole entry): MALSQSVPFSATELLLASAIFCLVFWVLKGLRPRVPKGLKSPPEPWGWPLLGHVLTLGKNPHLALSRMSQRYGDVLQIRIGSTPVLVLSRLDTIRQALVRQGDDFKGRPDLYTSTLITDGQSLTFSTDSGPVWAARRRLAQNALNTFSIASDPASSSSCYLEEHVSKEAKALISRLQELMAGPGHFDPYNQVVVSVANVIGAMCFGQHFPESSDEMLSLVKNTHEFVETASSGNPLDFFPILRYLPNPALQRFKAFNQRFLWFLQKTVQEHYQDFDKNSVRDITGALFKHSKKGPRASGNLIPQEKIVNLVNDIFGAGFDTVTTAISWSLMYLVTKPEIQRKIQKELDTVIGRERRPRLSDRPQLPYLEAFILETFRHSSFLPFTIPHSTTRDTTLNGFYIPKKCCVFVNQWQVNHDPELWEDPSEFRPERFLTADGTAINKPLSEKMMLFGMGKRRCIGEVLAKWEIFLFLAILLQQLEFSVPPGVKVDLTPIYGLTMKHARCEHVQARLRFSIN

{"Structure Notation": "Cc1nnc(C(C)C)n1[C@@H]1C[C@H]2CC[C@@H](C1)N2CC[C@H](NC(=O)C1CCC(F)(F)CC1)c1ccccc1", "Target": "Cytochrome P450 1A2 (Homo sapiens)", "IC50": "> 25 µM"}

Inquiry: Any idea what IC50 was measured for "CC(=O)N1CCc2c(nc(C)n2[C@@H]2C[C@H]3CC[C@@H](C2)N3CC[C@H](NC(=O)C2CCC(F)(F)CC2)c2ccsc2)C1" ?
Reply text: > 25 µM

Inquiry: Same question for "Cc1nc2c(n1[C@@H]1C[C@H]3CC[C@@H](C1)N3CC[C@H](NC(=O)C1CCC(F)(F)CC1)c1ccsc1)CCN(C(=O)C(C)C)C2" please.
Reply text: > 25 µM
